Taken from patent US20250368678A1.

measurement.description: In vitro liver microsomal stability assay, rat
Type: in vitro ADME
measurement.setup: Rat liver microsomes
Method: 1) Preparation of working solutions of test samples: The test samples were diluted with acetonitrile to 100 M. 2) Preparation of a working solution of liver microsomes: liver microsomes were diluted with 100 mM phosphate-buffered saline to 0.56 mg/mL. […] 5) After the reaction was stopped, each sample was vortexed for 30 s and then centrifuged at 13,500 rpm for 10 min. […] The mixture was well mixed by vortexing and analyzed by LC-MS/MS. […]
Answer each item with its documented CLint scaled at 1 µM.
Numbers only, in mL/min/kg.

Below are worked cases with known answers.
Cn1ncn(CC(=O)[C@H]2CC[C@H]3[C@@H]4CC[C@@H]5C[C@](C)(O)CC[C@@H]5[C@H]4CC[C@]23C)c1=O	117
C[C@@]1(O)CC[C@H]2[C@H](CC[C@@H]3[C@@H]2CC[C@]2(C)[C@@H](C(=O)Cn4cnn(-c5nccs5)c4=O)CC[C@@H]32)C1	152
C[C@@]1(O)CC[C@@]2(C)[C@@H](CC[C@@H]3[C@@H]2CC[C@]2(C)[C@@H](C(=O)Cn4cnn(-c5cccc(F)c5)c4=O)CC[C@@H]32)C1	29

INPUT: What value of CLint scaled at 1 µM has been reported for the following molecule? C[C@@]1(O)CC[C@H]2[C@H](CC[C@@H]3[C@@H]2CC[C@]2(C)[C@@H](C(=O)Cn4cnn(-c5cccc(C(N)=O)c5)c4=O)CC[C@@H]32)C1
OUTPUT: 141
